Each recorded value in this set is attributed to paper PMC3511619.

In what follows, each item is paired with its IC50 for HCV NS5B (Hepatitis C virus genotype 1b).
Answer with a number only, understood to be in µM.

Query :: State the measured IC50 (HCV NS5B (Hepatitis C virus genotype 1b)) of `COc1cc(O)c2c(c1)oc(=O)c1c3cc(O)c(O)cc3oc21`
Result :: 7.7

Query :: State the measured IC50 (HCV NS5B (Hepatitis C virus genotype 1b)) of `O=c1cc(-c2ccc(O)cc2)oc2cc(O)cc(O)c12`
Result :: 175

Query :: State the measured IC50 (HCV NS5B (Hepatitis C virus genotype 1b)) of `O=c1cc(-c2ccc(O)c(O)c2)oc2cc(O)cc(O)c12`
Result :: 11.3

Query :: State the measured IC50 (HCV NS5B (Hepatitis C virus genotype 1b)) of O=C(O)c1ccc(O)c(O)c1 [Compound 1, 3,4-dihydroxybenzoic acid]
Result :: 400

----------
Target: HCV NS5B (CΔ21) (Hepatitis C virus genotype 1b)
measuredMetric: pKd
Lab note — pKd values are minus log10 of concentrations in M.

Example cases with answers are listed next.
O=c1cc(-c2ccc(O)cc2)oc2cc(O)cc(O)c12 :: 3.91
COc1cc(O)c2c(c1)oc(=O)c1c3cc(O)c(O)cc3oc21 :: 4.61

# context switch: different molecule, same pKd
Query :: For the molecule `O=c1cc(-c2ccc(O)c(O)c2)oc2cc(O)cc(O)c12` , give its reported pKd.
Result :: 4.50
